Target: T1, HLA-DR7 molecule (DRB1*0701) (human)
T1 construct: HLA class II heterodimer
Assay: competitive ELISA, tracer YKL
Consider the following binders; for each one, report its IC50.
API: value field is a number in µM; no unit string.

What value of IC50 has been reported for the following binder? KQFEELTLGEFLKLD (synthetic 15-mer) [survivin peptide 91-105] 0.056

Look up IC50: KKQFEELTLGEFLKL (synthetic 15-mer) [survivin peptide 90-104] 0.14

What value of IC50 has been recorded for this entry: KNWPFLEGCACTPER (synthetic 15-mer) [survivin peptide 23-37] 60

Fill in: IC50 of FCFKELEGWEPDDDP (synthetic 15-mer) [survivin peptide 59-73] is ___ 9

Please look up its IC50: HRISTFKNWPFLEGC (synthetic 15-mer) [survivin peptide 17-31] 0.018

Give its IC50 value. Item: ERMAEAGFIHCPTEN (synthetic 15-mer) [survivin peptide 36-50] 17

Given STFKNWPFLEGCACT (synthetic 15-mer) [survivin peptide 20-34] , state its recorded IC50. 20

Record request: IC50 value, item PDLAQCFFCFKELEG (synthetic 15-mer) [survivin peptide 52-66] 6.67

Report IC50 for QPFLKDHRISTFKNW (synthetic 15-mer) [survivin peptide 11-25] please. 8

Recorded IC50 for AKKVRRAIEQLAAMD (synthetic 15-mer) [survivin peptide 128-142] , please? 1.34

Endpoint output: IC50 of KEFEETAKKVRRAIE (synthetic 15-mer) [survivin peptide 122-136] . Value? 20
